- testedTarget: T1, TNFR1 (Homo sapiens, UniProt P19438)
- T1 chain: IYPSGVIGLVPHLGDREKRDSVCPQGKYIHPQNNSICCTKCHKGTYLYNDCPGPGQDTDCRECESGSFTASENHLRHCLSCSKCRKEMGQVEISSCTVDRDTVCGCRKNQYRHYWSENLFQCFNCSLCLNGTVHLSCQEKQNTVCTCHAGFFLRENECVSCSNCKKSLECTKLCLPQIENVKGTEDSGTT
- assayProcedure: yeast display SC50
observable: apparent Kd (screen) (nM)
// units = nM; emit number, no label

- binder: "A42E (designed binder) MTLQELLREEALRRAEAEAFRYALELLAEKFPEQKEYLLDLEEEIESQIRSLSGVDVEDVRKFLDKEWAWVKELLAEHPAELAEVEAARAARLAELRAEVEAKVAA"
  observable: "apparent Kd (screen)"
  unitDescriptor: "nM"
  reported: 0.956

Below: the item to evaluate.
// query Field request: apparent Kd (screen) | item: L26I (designed binder) MTLQELLREEALRRAEAEAFRYALEILAEKFPEQKEYLLDLAEEIESQIRSLSGVDVEDVRKFLDKEWAWVKELLAEHPAELAEVEAARAARLAELRAEVEAKVAA
// result 0.653
